- experimentalDetails: Pharmacokinetic study of oral administration
- Assay type: in vivo
- assayConditions: mouse, blood, BALB/c male mice, 100 mg/kg p.o.
measurementName: Cmax (µg/mL)
Your answer is read as µg/mL, so omit the unit and give the number.

In: Which Cmax value belongs to COc1cc(N)cc2c1nc(C(F)F)n2-c1nc(N2CCCOCC2)nc(N2CCOCC2)n1 ?
Out: 1.66

----------
- assayedTarget: PI3Kα (PIK3CA/PIK3R1) (Homo sapiens, UniProt P42336)
- Sequence (P42336 whole entry): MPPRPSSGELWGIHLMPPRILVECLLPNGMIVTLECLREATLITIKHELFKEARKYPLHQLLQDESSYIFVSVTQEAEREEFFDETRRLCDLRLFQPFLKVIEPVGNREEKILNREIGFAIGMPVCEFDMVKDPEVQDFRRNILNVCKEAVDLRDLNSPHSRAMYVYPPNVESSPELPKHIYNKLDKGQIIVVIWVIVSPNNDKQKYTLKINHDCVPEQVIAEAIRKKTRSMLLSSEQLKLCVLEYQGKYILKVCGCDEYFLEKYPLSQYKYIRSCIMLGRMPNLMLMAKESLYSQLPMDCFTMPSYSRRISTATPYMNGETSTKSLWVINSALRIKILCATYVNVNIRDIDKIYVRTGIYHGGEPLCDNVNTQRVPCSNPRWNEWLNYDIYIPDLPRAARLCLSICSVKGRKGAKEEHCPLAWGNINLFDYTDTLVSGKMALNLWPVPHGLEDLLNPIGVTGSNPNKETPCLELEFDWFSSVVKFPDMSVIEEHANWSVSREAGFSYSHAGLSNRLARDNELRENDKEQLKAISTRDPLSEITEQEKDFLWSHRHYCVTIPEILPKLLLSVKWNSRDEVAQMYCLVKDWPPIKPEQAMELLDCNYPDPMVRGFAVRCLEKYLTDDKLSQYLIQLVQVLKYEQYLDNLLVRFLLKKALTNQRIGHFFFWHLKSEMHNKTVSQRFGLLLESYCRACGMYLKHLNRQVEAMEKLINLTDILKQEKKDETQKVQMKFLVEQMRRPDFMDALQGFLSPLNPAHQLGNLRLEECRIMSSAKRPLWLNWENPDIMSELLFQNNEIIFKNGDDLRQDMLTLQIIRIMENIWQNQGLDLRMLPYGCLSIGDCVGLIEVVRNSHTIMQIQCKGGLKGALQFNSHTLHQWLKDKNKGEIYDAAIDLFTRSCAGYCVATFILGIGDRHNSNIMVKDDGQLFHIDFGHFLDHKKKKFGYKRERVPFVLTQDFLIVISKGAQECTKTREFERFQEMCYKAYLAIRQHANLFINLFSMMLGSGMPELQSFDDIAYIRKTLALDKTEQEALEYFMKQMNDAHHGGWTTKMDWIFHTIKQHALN
- Sequence (P27986 whole entry partner): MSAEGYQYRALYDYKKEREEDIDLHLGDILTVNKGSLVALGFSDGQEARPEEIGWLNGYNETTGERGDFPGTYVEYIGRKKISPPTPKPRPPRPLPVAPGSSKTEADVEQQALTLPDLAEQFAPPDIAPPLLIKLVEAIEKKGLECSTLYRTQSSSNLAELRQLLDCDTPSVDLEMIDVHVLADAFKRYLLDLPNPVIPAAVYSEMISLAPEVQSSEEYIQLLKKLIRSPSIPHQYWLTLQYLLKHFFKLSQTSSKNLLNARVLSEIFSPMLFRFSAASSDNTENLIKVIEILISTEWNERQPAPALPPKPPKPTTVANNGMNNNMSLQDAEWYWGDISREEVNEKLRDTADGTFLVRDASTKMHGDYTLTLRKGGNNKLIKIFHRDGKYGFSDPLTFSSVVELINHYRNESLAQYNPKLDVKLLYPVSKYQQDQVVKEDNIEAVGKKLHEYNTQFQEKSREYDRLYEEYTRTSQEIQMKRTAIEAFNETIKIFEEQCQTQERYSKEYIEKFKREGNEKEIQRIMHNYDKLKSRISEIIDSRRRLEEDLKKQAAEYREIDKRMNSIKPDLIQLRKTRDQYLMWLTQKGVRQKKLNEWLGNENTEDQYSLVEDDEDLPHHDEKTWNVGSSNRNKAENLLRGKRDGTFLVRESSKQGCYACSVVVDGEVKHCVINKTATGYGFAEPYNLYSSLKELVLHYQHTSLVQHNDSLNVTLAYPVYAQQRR
- experimentalDetails: Adapta kinase assay
measurementName: IC50

In: What measured IC50 is associated with COc1cc(N)cc2c1nc(C(F)F)n2-c1nc(N2CCCOCC2)nc(N2CCOCC2)n1 [KTC1101] on PI3Kα (PIK3CA/PIK3R1) (Homo sapiens, UniProt P42336)?
Out: 3.72 nM
